System: Escherichia coli TOP10
Experiment: shrunken log2 fold change of peptide-encoding DNA abundance (4.5 h post-induction vs induction); higher = less antimicrobial activity (less host growth inhibition)
Conditions: time post-induction: 4.5 h; library: site-saturation at positions 5, 18, 19, 20
measured.metric: shrunken log2 fold change

{"columns": ["residue.codes", "number"],
 "data": [
  ["RRIRPRPPRLPRPRPRPLICPRP", -0.164],
  ["RRIRSRPPRLPRPRPRPLHVPRP", -0.245],
  ["RRIRWRPPRLPRPRPRPHTSPRP", -0.672],
  ["RRIRTRPPRLPRPRPRPIDCPRP", 0.0429],
  ["RRIRLRPPRLPRPRPRPQMPPRP", -0.417],
  ["RRIRKRPPRLPRPRPRPECEPRP", 0.0869],
  ["RRIRQRPPRLPRPRPRPRLIPRP", -0.076],
  ["RRIRERPPRLPRPRPRPHCAPRP", 0.201],
  ["RRIRMRPPRLPRPRPRPGYWPRP", 0.0653],
  ["RRIRLRPPRLPRPRPRPPKRPRP", 0.492],
  ["RRIRKRPPRLPRPRPRPMIVPRP", 0.00271],
  ["RRIRRRPPRLPRPRPRPTKAPRP", 0.372],
  ["RRIRLRPPRLPRPRPRPPDCPRP", 0.0366],
  ["RRIRIRPPRLPRPRPRPWHKPRP", -0.00213],
  ["RRIRTRPPRLPRPRPRPACFPRP", 0.252],
  ["RRIRWRPPRLPRPRPRPYECPRP", -0.148],
  ["RRIRERPPRLPRPRPRPKVWPRP", 0.332],
  ["RRIRNRPPRLPRPRPRPQDSPRP", -0.238],
  ["RRIRYRPPRLPRPRPRPCIVPRP", -0.246],
  ["RRIRMRPPRLPRPRPRPKWDPRP", 0.68],
  ["RRIRLRPPRLPRPRPRPMVDPRP", -0.00377]
]}

----------
The reader will find reported shrunken log2 fold change values listed item by item below.
System: Escherichia coli TOP10;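 also: peptides expressed intracellularly from a pBAD plasmid library in pooled LB shake-flask culture, induced with 0.3% L-arabinose, DNA abundance read by NGS, three biological replicates, DESeq2 with apeglm shrinkage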
Experiment: shrunken log2 fold change of peptide-encoding DNA abundance (4.5 h post-induction vs induction); higher = less antimicrobial activity (less host growth inhibition)
Conditions: time post-induction: 4.5 h; library: site-saturation at positions 5, 18, 19, 20

{"columns": ["residue.codes", "shrunken log2 fold change"],
 "data": [
  ["RRIRHRPPRLPRPRPRPRCEPRP", 0.149],
  ["RRIRARPPRLPRPRPRPNGPPRP", 0.149],
  ["RRIRPRPPRLPRPRPRPVNHPRP", -0.277],
  ["RRIRYRPPRLPRPRPRPPGVPRP", 0.259],
  ["RRIRKRPPRLPRPRPRPQYWPRP", 0.152],
  ["RRIRSRPPRLPRPRPRPELIPRP", -0.123],
  ["RRIRMRPPRLPRPRPRPIFGPRP", 0.0873],
  ["RRIRCRPPRLPRPRPRPNDYPRP", -0.42],
  ["RRIRARPPRLPRPRPRPWGRPRP", 0.198],
  ["RRIRARPPRLPRPRPRPRWQPRP", 0.361],
  ["RRIRWRPPRLPRPRPRPPWGPRP", 0.483],
  ["RRIRARPPRLPRPRPRPINNPRP", -0.441],
  ["RRIRTRPPRLPRPRPRPPPVPRP", 0.652],
  ["RRIRWRPPRLPRPRPRPGYRPRP", 0.0673],
  ["RRIRCRPPRLPRPRPRPNRIPRP", -0.111],
  ["RRIRGRPPRLPRPRPRPHEIPRP", 0.0317],
  ["RRIRDRPPRLPRPRPRPKLQPRP", 0.08],
  ["RRIRKRPPRLPRPRPRPRQMPRP", 0.0035],
  ["RRIRTRPPRLPRPRPRPHSLPRP", 0.0291],
  ["RRIRQRPPRLPRPRPRPKDPPRP", -0.000135],
  ["RRIRIRPPRLPRPRPRPQINPRP", -0.776],
  ["RRIRSRPPRLPRPRPRPYKQPRP", -0.62],
  ["RRIRMRPPRLPRPRPRPNKFPRP", 0.0721],
  ["RRIRNRPPRLPRPRPRPEFCPRP", 0.0216],
  ["RRIRERPPRLPRPRPRPLPEPRP", 0.0716],
  ["RRIRHRPPRLPRPRPRPDCRPRP", -0.0597],
  ["RRIRARPPRLPRPRPRPQKWPRP", 0.301],
  ["RRIRCRPPRLPRPRPRPDICPRP", -0.22],
  ["RRIRNRPPRLPRPRPRPTPWPRP", 0.161],
  ["RRIRHRPPRLPRPRPRPELFPRP", 0.458],
  ["RRIRDRPPRLPRPRPRPCFYPRP", -0.167],
  ["RRIRNRPPRLPRPRPRPPCHPRP", -0.386],
  ["RRIRWRPPRLPRPRPRPKIKPRP", -0.0556],
  ["RRIRMRPPRLPRPRPRPACDPRP", 0.974],
  ["RRIRHRPPRLPRPRPRPNIIPRP", -0.307],
  ["RRIRWRPPRLPRPRPRPCNFPRP", -0.464],
  ["RRIRIRPPRLPRPRPRPRAMPRP", -0.0601],
  ["RRIRARPPRLPRPRPRPSTYPRP", -0.356],
  ["RRIRRRPPRLPRPRPRPIDMPRP", 0.0233],
  ["RRIRDRPPRLPRPRPRPQSRPRP", -0.123],
  ["RRIRERPPRLPRPRPRPCHWPRP", -0.0135],
  ["RRIRARPPRLPRPRPRPQDRPRP", -0.139],
  ["RRIRYRPPRLPRPRPRPCINPRP", -0.00114]
]}
